Reported Jurkat Cell Binding (FOI) values are given for each entry in this list.
target: T1, human CD3 expressed on cells (human, UniProt P07766 23-207; P04234 22-171; P09693 23-182); test: flow cytometry, 25 nM
T1 construct: whole, on cells; CD3 complex on Jurkat cells and on human primary T cells
T1 sequence (P07766 23-207, chain 1 of 3): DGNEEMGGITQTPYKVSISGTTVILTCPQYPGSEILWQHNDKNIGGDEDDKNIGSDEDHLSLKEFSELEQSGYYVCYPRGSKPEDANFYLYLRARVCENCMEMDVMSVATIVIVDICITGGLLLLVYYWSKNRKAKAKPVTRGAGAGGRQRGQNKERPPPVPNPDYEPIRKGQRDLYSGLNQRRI
T1 sequence (P04234 22-171, chain 2 of 3): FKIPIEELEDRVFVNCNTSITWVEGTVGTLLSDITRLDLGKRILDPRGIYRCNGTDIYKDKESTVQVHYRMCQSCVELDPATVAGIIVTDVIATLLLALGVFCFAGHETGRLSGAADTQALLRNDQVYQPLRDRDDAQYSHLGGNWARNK
T1 sequence (P09693 23-182, chain 3 of 3): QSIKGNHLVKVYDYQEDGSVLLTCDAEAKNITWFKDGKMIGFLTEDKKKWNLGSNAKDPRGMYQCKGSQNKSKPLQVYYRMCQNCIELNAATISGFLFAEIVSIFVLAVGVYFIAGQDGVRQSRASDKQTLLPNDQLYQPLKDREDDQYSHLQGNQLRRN
The answer is to be given in FOI; state only the numeric part.

Give its Jurkat Cell Binding (FOI) value. Item: mAb 111 (antibody, V domains shown) VH: EVQLVESGGVLVKTGGSLRLSCVASGFSFKKAWMNWVRQAPGKGLEWVGRIKRNSDGGAADYAAPVKDRFTLSRDDSKNTLYLQMNSLKTEDTAVYYCTTLDSSSWYVGYYYMDVWGKGTTVTVSS VL: DIHMTQSPSSVSASLGDRVTFTCRASQNINNWLAWYQQKPGKAPKLLIYTASSLQSGVPSRFSGSGSGTDFTLTISSLQPDDFATYYCQQAHSLPITFGQGTRLGIK
160

Now consider mAb 70 (antibody, V domains shown) VH: QGQLVESGGGVVQPGRSLRLSCEASGFTFRSYGMHWVRQPPGKGLEWVAIIWYDGGKKYYGDSVKGRFTISRDNPKNTLYLQMNSLRPEDTAVYYCMAYDYSNGFDIWGQGTMVTVSS VL: DIVMTQTPLSSPVTLGQPASISCRSSQSFVHSDGSTYLSWLQQRPGQPPRLLIYKISNRFSGVPDRFSGRGAGTDFTLKISRVEAEDVGIYYCMQNTQFPYTFGQGTKLEIK .
140

Now consider mAb 166 (antibody, V domains shown) VH: EVQLVESGGGLVKTGGSLRLSCVASGFSFKKAWMNWVRQAPGRGLEWVGRIKRNTDGGTTDYAAPVKGRFTLSRDDSKNMLYLQMNSLKTEDTAVYYCTTLDSSSLYVGYYYMDVWGKGTTVTVSS VL: DIQMTQSPSSVSASVGDRVTITCRASQDINNWLAWYQQKPGKAPKLLIYTASSLQSGVPSRFSGSGSGTDFTLTISSLQPEDFATYFCQQAHSLPITFGQGTRLEIT .
159
